ELISA signal relative to background values, listed per item
Target: T1, FX activation peptide 12-mer NQTQPERGDNNL (human)
T1 peptide: NQTQPERGDNNL-biotin
Assay: peptide ELISA
Ends that are not written are not given here.
Kindly provide the number alone.

Worked cases, ELISA signal relative to background given:
Given the binder Nb 729A04 (VHH, monovalent Nanobody; not shown: C-terminal FLAG3 and HIS6 tag) VHH: EVQLVESGGGVVQPGGSLRLSCAASGFTFSDYAMSWVRQAPGKGLEWVSGITSGGGRTYYADSVKGRFTISRDNSKNTLYLQMNSLRPEDTALYYCAAVRTLGLRGSYDYWGQGTLVTVSS , write its reported ELISA signal relative to background.
1.13

State its ELISA signal relative to background for this binder: Nb 730C03 (VHH, monovalent Nanobody; also called Nb 730003; not shown: C-terminal FLAG3 and HIS6 tag) VHH: EVQLVESGGGVVQPGGSLRLSCVASGFTFSDYAMSWVRQAPGKGLEWVSGITSGSGRTYYADSVKGRFTISRDNSKNTVYLQMNSLRPEDTALYYCAAAILRGYRKTYDYWGQGTLVTVSS
1.22

Tell me measured ELISA signal relative to background for Nb 702C12 (VHH, monovalent Nanobody; not shown: C-terminal FLAG3 and HIS6 tag) VHH: EVQLVESGGGVVQPGGSLRLSCVASGRTFSRYAMGWFRQAPGKEREFVAAISRRGGSTNYADSVKGRFTISRDNSKNTVYLQMNSLRPEDTALYYCAADYSSGDGYLDYWGQGTLVTVSS please.
0.92

Turning now to a further record.
Please look at this binder and report its ELISA signal relative to background: Nb 701C06 (VHH, monovalent Nanobody; not shown: C-terminal FLAG3 and HIS6 tag) VHH: EVQLVESGGGVVQPGGSLRLSCAASGRTFSTYAMGWFRQAPGKEREFVAAISRRGGRTYYADSVKGRFTISRDNSKNTVYLQMNSLRPEDTALYYCAADATARDGLLDYWGQGTLVTVSS
0.85
